- assay.target: HLA-A*2401 (human)
- assay.name: inhibition of 125I probe peptide binding to purified HLA; IC50 standard/IC50 test
readout.type: relative binding ratio

For orientation, consider the following solved cases.
binder	recorded.number
EYLVPQQGF [HER2/neu 1022-1030]	0.0014
IMVKCWMI [HER2/neu 954-961]	0.021
TMRRLLQETEL [HER2/neu 686-696]	-0.0003
LFEDNYAL [HER2/neu 107-114]	0.0006

a. VFQNLQVI [HER2/neu 424-431]
b. CFVHTVPW [HER2/neu 475-482]
c. IWIPDGENVKI [HER2/neu 738-748]
Rank descending by relative binding ratio. Provide your answer as the labels ordered per the instruction.
b, c, a

1. IFHKNNQL [HER2/neu 172-179]
2. AFDNLYYW [HER2/neu 1216-1223]
Consider entries 1 and 2 . Which has the numerically lower relative binding ratio? Give the label under which the chosen entry appears.
1

A. SYLEDVRL [HER2/neu 834-841]
B. TYLPTNASL [HER2/neu 63-71]
C. KWMALESIL [HER2/neu 887-895]
Exam item: list the entries in increasing order of relative binding ratio. Lab note: final answer is the ordered label list.
A, C, B

Reference source: patent US20040018971A1
